All values here come from the domain aggregation screens of Martell et al. (2025).

experiment: soluble fraction after stress (log2 fold change); higher = more stays soluble; pooled small domains, quantitative proteomics; conditions: stress: 50 degC

seqString	soluble fraction (log2)
HMSGLLTTSKLAQKHKMKTEPMLEKLTAAGYLEWRDDKHSLTEQGKKAGGQFKTGRFGAYFLWPEDLV	-0.259
HMPHFFISTSDVNQDIITVSDKENFHHIARVLRSKVGETLLLVDENRTQYKVVIQNIDSKSITTKVVETLK	-0.138
HMDYGSISFINWSIEVLSVIKTRLDRGDKIIDEVSGEKYTASSFEKFVRKNFSSYIFSQVYAEDHKK	-2.55
HMPPAPGHDLTEREREVLRLLVEGLSNQEISDRLVISQSTVKNHVSSVLSKLDAANRAEAVALALKNQL	0.00346

----------
test: soluble fraction after stress (log2 fold change); higher = more stays soluble; pooled small domains, quantitative proteomics; settings: stress: 50 degC
measureName: soluble fraction (log2)

seqString	measValue
HMSGYAIVNNQPGRTLNLRNSPSQSNNIIGQIPSGTRLQLISRGETWSEVIFQTTRGFVMSSFLRFET	-0.809
HMSKIRTFRVKTVAVDQAYQVLKDYSPIKISTESNAVIIDLDESKTPAEIAGYLEKNGIKVDNIEVIAESE	0.179
HMVAAITDLPVKSVNGRQMYYYVVRKGETVYSLTHTLGITHDRLVKANRSVEDGLRAGQILYFPVSEFG	-1.42
HMEKPAQDVLASHREWMGEMIKAEHMTAKQVWRLLRERADIGVSYPTVKRYLRAHFQFGGPS	-1.28
HMLISDENMLRDLVQAVLDENPKSVSDYKSGKTKAFGFLVGQTMKAVKGQADPMLVNKILTELLN	-0.0365
HMEDMMKALLDVVRAQHTATEGSEERPFDINDIIDMALNITGRPEEPEEQQELSDTIQKLAESLAPDIFP	-0.356
HMSDFSNLNLLELNSSELDLLLRRASSQGLTQMDLLKMARSQGLSEADLIKVKGKIDTSESIKR	-0.0148
HMIAAPFVVKDIRVDGVQPATGEAIISSLPVKVGQTATDADVSNVVRQLFSLNRFQNVQATREGNTLVIKV	0.0499
HMSELADDPVYTALEKAADKAGLQLTVRILNDLADAVLKRGKKKLTAAQAGKVIARAESELAKSRID	-0.0759
HMDEPGTGFKWREDVLLRVMEANGIDTSHRDDFVRHAVKFDNDDNLYLKKAEIEDAAAAWVSEHS	0.0272
HMGPAYQTQRQEAFAALSEIAAKNPQLMQVAGDLVFRAADFPMADELADRLAKTLPPQLQDKKGQP	-0.464
HMVVADFQNYTVKPKENLYSLTKTSGLSQEELVALNPELKNGVQEGMVIKLPAAVKLMAQPE	0.15
HMDSNPLSEREQEVLQLVAKGASNQTIAEQLFLSNGTIRNYMTAIFNKLNANNRTDAVRIARENGW	-0.144
HMYTDGVPALTDLKKESKPGRRQYVGVEDIPKVLGGLGITILSTSKGLMSGHQAKKKNIGGELIASV	0.258
HMQVLSESDVEDIKAISGGDKAYDNLMEWAGSKLSKQDAKDYDDVLATGNKTAITFAVKALMAQYENAN	-0.299
HMNVDALVGQRGRVTQTFDPGLRLGRVAVGGDDWRAETTTDQPLREGDLVEVVSVESNTLIVRPIA	-0.0828
HMESPVNTLPEDQRAWYKALPPELSTKTAVEAGAGVGVSERTVKRLLSNQTFFINLQRGNYRKRH	0.172
HMLRIIDYNRVVKDLNGLTPEQLLEKLAESFTVEDKGTEEYRPTELHNFSMYLGGHWYSLTAKPGTYDDND	-0.937
HMPGLPLWAFSTRGSAIHTGASFRDGDGLLFGPESRGLPDWLLEEVGQDRVLRLPMRPGSRSLNLSNAV	-0.304
HMNREENIQIGRDLLERELRKQGMDLQENLRQEVLLDGAKKLGFNNTDDLLAAIGDLKVTPAMFIGKIA	0.0695
HMGASIQITVNNTPVMLKNKTHYTLVDVLDFYPFDLSKMGGTELYTAINGVKSGFTDPVHANDSIEIYWI	-0.148
HMNDADAHASVDAALKHLEALAETTPEVRAALELVRRGPDGRVTVDSFARVAEALREISIAVGAS	0.107
HMDRWTPLVVAVLSRGSHRFGELRAAIGGITPKVLTDTLRSMERDGLITRDQAPGVPPRVDYALTPLGS	-1.12
HMGESEWIVKWRGEKRDEERLQESELVRDDPEHRISVVRPRDDVDASAWLNRWRKSRYVQYIQPNHRVTIS	0.0613
HMQPETIEDATNLYLEAARATLQLIEQNNVIARDVKRLLEHLDNDMARIETLLAEMLSRRDHWLRHIH	-0.12
HMTTQVNTVKIQLANGYEMTVLTSKTNVKEILEDNNIILENNEKVTPNIDEEISSNKTIKITDKSN	0.146
HMVKIVWSKEGPYVGTRVRRYFSQGPVDGTVVMYAKPQKGDDVALWRISHDDGDEEDLEEQELRLAID	-1.65
HMRPSGTAGILRYLSSGAIRGIGATTAQRLVSEFGEKTLDVMENEPERVAMLKGISKSKAEDFSLQLKQS	0.0105
HMKGERHNKILELIQQHAIDRQEDLLRYLKEAGFQVTQATVSRDIRELHLVKVAAGGGQYRYVSAAAAS	-0.0903
HMIPYSDLLKLLSNDAMPKFRNKDGWAKIHALETYLASRWSYQEYGFASFTVLLETVHNAEIRNDSVRLM	-0.343
HMGVDIAEHDGQPAVSIRKGAAESVAQWVKDQGGTFPQEVEMTVQNVARAGGTPLVVARGRDVLGVIYLKD	0.0501
HMTVLIDEQSSDGLLKITVTANTAVKSITIADELLEDKEQLEDYLILVLNKAIARANQVNQTELDAVAK	0.317
HMSFGKKLRSLRQEKKLSQVELSKKLNVTSQALSQYELGKRIPDAEMIIRIADFFDVSVDYLLDRT	0.215
